Exercise: for every item that follows, state its recorded TGI.
- Tested on: HCT-116 colon
- ASSAY_INFO: NCI tumour cell line growth inhibition, 48 h

Requested field: TGI. Item: CC(=O)O[C@H]1C(=O)[C@@]2(C)C(C(OC(=O)c3ccccc3)[C@]3(O)C[C@H](OC(=O)C(OC(=O)CCCC(=O)NCCCN(C)C)C(NC(=O)c4ccccc4)c4ccccc4)C(C)=C1C3(C)C)C1(OC(C)=O)COC1C[C@@H]2O (stereo partly specified)
1.53 µM

Requested field: TGI. Item: N#Cc1nc(CCN2C(=O)c3ccccc3C2=O)oc1N
> 100 µM

Requested field: TGI. Item: CCOC(=O)c1ccc(NC(=O)Nc2nncs2)cc1
11.8 µM

Requested field: TGI. Item: COCC1CCCN1c1ccc(C=N/C(C#N)=C(\N)C#N)cc1 (stereo unspecified)
> 100 µM

Requested field: TGI. Item: CC(=O)Nc1ccc(NCC(=O)Nn2cnc3ccc(S(=O)(=O)Nc4ccc(NC(C)=O)cc4)cc3c2=O)cc1
> 100 µM

Requested field: TGI. Item: CC#CC(O)(C(=O)OCCCN(C)C)C1CCCCC1 (stereo unspecified)
> 100 µM
